# Tgt: recombinant murine sEH (Mus musculus)
# Sequence (P34914 whole entry): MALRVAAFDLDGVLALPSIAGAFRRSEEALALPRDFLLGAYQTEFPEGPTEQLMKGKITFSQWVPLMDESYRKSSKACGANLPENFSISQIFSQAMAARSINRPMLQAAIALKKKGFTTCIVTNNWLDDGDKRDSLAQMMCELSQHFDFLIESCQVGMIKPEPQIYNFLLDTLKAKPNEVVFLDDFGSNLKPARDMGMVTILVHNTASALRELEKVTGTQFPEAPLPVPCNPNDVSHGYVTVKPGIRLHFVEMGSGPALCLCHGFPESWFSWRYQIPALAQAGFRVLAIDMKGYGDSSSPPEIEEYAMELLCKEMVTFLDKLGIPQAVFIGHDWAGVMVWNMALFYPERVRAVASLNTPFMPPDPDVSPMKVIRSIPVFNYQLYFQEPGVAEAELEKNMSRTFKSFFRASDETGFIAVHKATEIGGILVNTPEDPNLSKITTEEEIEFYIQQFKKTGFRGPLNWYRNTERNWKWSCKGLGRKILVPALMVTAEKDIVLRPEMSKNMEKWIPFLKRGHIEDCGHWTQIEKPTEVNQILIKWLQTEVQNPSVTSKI
# Protocol text: Inhibition of recombinant murine sEH
Attribute measured: IC50 (nM)
Give the value, in units of nM, as a plain number.

Find the measured IC50: item COc1cc(CNC(=O)CCCC/C=C/C(C)C)ccc1O [capsaicin] , target or system recombinant murine sEH (Mus musculus).
1500
